Test system: Staphylococcus aureus
Assay: Antibacterial against Staphylococcus aureus ATCC 6538 after 24 hrs by NCCLS M7-A6 method
Type: functional
Settings: ATCC 6538, 24 h
Hi there, I'd appreciate the recorded MIC for every entry that follows.
Just the number plus its unit, please.

So, CC(=O)c1c(OCCN(C)Cc2ccccc2)ccc2c(C)cc(=O)oc12 ? Its MIC was 35.7 mM

Per the record, C[N+](C)(CCOc1ccc2ccc(=O)oc2c1)Cc1ccccc1 has MIC of 21.2 mM

For CCN(CC)CCOc1ccc2c(C)cc(=O)oc2c1C(C)=O the compound record lists MIC as 3.9 mM

Recorded MIC (compound CC(=O)c1cc2c(C)cc(=O)oc2cc1OCCN1CCOCC1 ): 30.2 mM

Noted for CC1CCCCN1CCOc1ccc2ccc(=O)oc2c1 (stereo unspecified) : its MIC reads 46.3 mM

compound CC(=O)c1cc2c(C)cc(=O)oc2cc1O , MIC observed: 45.8 mM

====

Test system: Staphylococcus aureus
Experiment: Antibacterial against Staphylococcus aureus ATCC 6538 after 24 hrs by NCCLS M7-A6 method
Format: functional
Conditions: ATCC 6538, 24 h
So I've got a bunch of compounds here, and I need their log10 MIC values.
Note the log scale: values are log10 of MIC expressed in mM.

So, Cc1cc(=O)oc2cc(OCCN3CCCCC3C)ccc12 (stereo unspecified) ? Its log10 MIC was 1.64

Sample CC(=O)c1c(O)ccc2c(C)cc(=O)oc12 ; log10 MIC observed: 1.84

So for CC(=O)c1cc2c(C)cc(=O)oc2cc1OCCN1CCCCC1 , the logged log10 MIC turned out to be 1.12

The reported value for CCN(CC)CCOc1cc2oc(=O)cc(C)c2cc1C(C)=O.Cl in terms of log10 MIC is 0.85

Field log10 MIC (entry CC(=O)c1cc2c(C)cc(=O)oc2cc1OCCN(C)Cc1ccccc1 ) reads 1.39

Per the record, CC(=O)c1c(OCCN2CCCCC2)ccc2c(C)cc(=O)oc12 has log10 MIC of 1.59

The measured log10 MIC associated with CC(=O)c1cc2c(C)cc(=O)oc2cc1OCCN1CCCCC1C (stereo unspecified) reads 1.42

The compound Cc1cc(=O)oc2cc(OCCN(C(C)C)C(C)C)ccc12 showed log10 MIC equal to 1.64

Record summary for CCN(CC)CCOc1ccc2c(C)cc(=O)oc2c1 : reported log10 MIC = 1.51

Field log10 MIC (entry CC(=O)c1c(OCCN2CCCCC2C)ccc2c(C)cc(=O)oc12 (stereo unspecified) ) reads 1.39

Entry O=c1ccc2ccc(OCCN3CCOCC3)cc2o1 ; log10 MIC = 1.86

Where these numbers come from: ChEMBL document CHEMBL1781990
